System: SN12C renal
test_summary: NCI-60 one-dose screen, 48 h
protocol_conditions: 10 µM unless noted
About 83,000 compounds went through this panel and 20% of them were active in at least one assay; those are over-represented in the sample as a whole. The source made the active and inactive calls. Rule for the calls: active = growth percent below 10; inactive = the rest.
Outcome field: choose from YES for active, NO for inactive

Would you please look over these solved cases?
Cc1ccc(S(=O)(=O)c2nc(-c3ccccc3)oc2S(C)=O)cc1 (stereo unspecified) ... NO
C#CCOc1ccc(C2=NN(CCCC)C3N=C(Cl)c4ncn(CCCC)c4N23)cc1OCC#C (stereo unspecified) ... NO
CN1CCN(Cc2ccc(NC(=O)c3cc(C#Cc4cnc(N)c5ncccc45)n(C)n3)cc2C(F)(F)F)CC1 ... NO

Ask: Dear all, I need the recorded test outcome for C#CCOc1cccc(Nc2ncnc3c(NC(=O)CCl)cccc23)c1 , thank you.
Result: YES

Ask: Dear all, I need the recorded test outcome for CCCCCN(CCCCC)CC(O)c1c(Cl)ccc2ccccc12 (stereo unspecified) , thank you.
Result: NO

Ask: Dear all, I need the recorded test outcome for COC(=O)c1sc(-c2ccc(C)cc2)cc1O , thank you.
Result: NO

Ask: Dear all, I need the recorded test outcome for COC(=O)CNC(=O)c1ccc(NC(=O)c2[nH]c(C)c(Cl)c2Cl)c(O[C@H]2CCNC2)c1 , thank you.
Result: NO

Ask: Dear all, I need the recorded test outcome for N#Cc1c(-c2ccc(Cl)cc2)nc(NN=Cc2cccc(Cl)c2)nc1N1CCOCC1 , thank you.
Result: NO
